Source listed as patent US8937193B2.

# IC50 measurements, system: Bfl-1 (Homo sapiens (Human))
# Sequence (Q16548 whole entry): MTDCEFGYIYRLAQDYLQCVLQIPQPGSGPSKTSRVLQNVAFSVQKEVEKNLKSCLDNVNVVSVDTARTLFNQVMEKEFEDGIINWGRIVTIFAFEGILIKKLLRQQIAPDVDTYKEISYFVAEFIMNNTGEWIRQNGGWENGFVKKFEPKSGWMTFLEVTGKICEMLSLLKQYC
State just the number; it will be interpreted in nM.

compound: CC1=C(C2=C(C)C(=O)c3c(cc(O)c(O)c3C(C)C)C2=O)C(=O)c2cc(O)c(O)c(C(C)C)c2C1=O [Compound 6a, reference compound]
IC50, nM: 2170

Turning now to a further compound:
Exercise: State IC50 on Bfl-1 (Homo sapiens (Human)). Entry: "CC1=C(C2=C(C)C(=O)c3c(cc(O)c(O)c3CC(C)C)C2=O)C(=O)c2cc(O)c(O)c(CC(C)C)c2C1=O"
Key: 1410

* * *

# experiment.description: In vitro plasma stability
# condition.set: Table 4
reported.endpoint: Plasma Stability (T = 40 mins) (%)
Record the value in %, omitting the unit from your answer.

Exercise: Give Plasma Stability (T = 40 mins) for CC1=C(C2=C(C)C(=O)c3c(cc(O)c(O)c3C(C)C)C2=O)C(=O)c2cc(O)c(O)c(C(C)C)c2C1=O [Compound 6a, reference compound]
Key: 77

Exercise: Read the entry "CC1=C(C2=C(C)C(=O)c3c(cc(O)c(O)c3CCc3ccccc3)C2=O)C(=O)c2cc(O)c(O)c(CCc3ccccc3)c2C1=O" and write its reported Plasma Stability (T = 40 mins).
Key: 81

Exercise: Write down Plasma Stability (T = 40 mins) measured for item "CC1=C(C2=C(C)C(=O)c3c(cc(O)c(O)c3Cc3ccccc3)C2=O)C(=O)c2cc(O)c(O)c(Cc3ccccc3)c2C1=O"
Key: 95
